test system: MCF-7 WT cells; assay: Viability assay (CellTiter-Glo, 7 days), MCF-7 WT; type: cell-based, human; details: Homo sapiens, MCF7, 168 h
pIC50: −log10 of the molar value.

COMPOUND: C[C@]12CC[C@@H]3c4ccc(O)cc4C[C@@H](CCCCCCCCC[S+]([O-])CCCC(F)(F)C(F)(F)F)[C@H]3[C@@H]1CC[C@@H]2O (stereo partly shown)
TARGET_ENTITY: MCF-7 WT cells
pIC50: 9.40

Recorded values, source paper PMC10426190.
